# Ki against Hepatocyte growth factor receptor (Homo sapiens), merged from multiple literature sources

Query block: Request the reported Ki associated with CN(C)CCCc1cnc2c(-c3ccccn3)c(N)nn2c1
Result block: 500 to 5000 nM

Query block: Could you share which Ki value was measured for CC(=O)Nc1ccc(-c2cnc(N)c(-c3nnnn3-c3c(Cl)cccc3Cl)c2)cc1 ?
Result block: 100 to 1000 nM

Query block: So what's the measured Ki for this one? CC(C)C(=O)Nc1cccc(-c2cnc(N)c(-c3nnnn3-c3cccc(F)c3F)c2)c1
Result block: 100 to 1000 nM

Query block: Given the compound Nc1nn2cc(-c3ccnc(N4CCN(CCOCCO)CC4)c3)cnc2c1-c1ccccn1 , what is its reported Ki?
Result block: < 500 nM

Query block: Record request: Ki value, item CCN(CCCCN)C(=O)c1cccc(-c2cnc3c(-c4ccccn4)c(N)nn3c2)n1
Result block: < 500 nM

Query block: Any idea what Ki was measured for Nc1ncc(-c2ccc(N3CCCC3)nc2)nc1-c1nncn1-c1cccc(F)c1F ?
Result block: 100 to 1000 nM

Query block: Find the recorded Ki belonging to Cc1c(C(=O)Nc2ccc(-c3cccc4cnccc34)c(F)c2)c(=O)n(-c2ccccc2)n1C and report it.
Result block: 73 nM

Query block: Quick check: Ki of CCC(C)Nc1cc(-c2c(N)nn3cc(C)cnc23)ncn1 (centres unmarked) ?
Result block: < 500 nM

Query block: Report Ki for Cc1cnc(Nc2ccc(Oc3ccnc(NC(=O)N4CCOCC4)c3)c(F)c2)c(C(=O)Nc2ccccc2)c1 please.
Result block: 1.7 nM

Query block: Entry under review: C[C@@H](NC(=O)c1nc(C#CCCO)cnc1N)c1nnc2ccc(Nc3cccc(Cl)c3)nn12 . Reported Ki?
Result block: ≤ 250 nM

Query block: Would you mind telling me what Ki value was observed for CS(=O)(=O)Nc1ccc(-c2cnc(N)c(-c3nnnn3-c3cccc(F)c3F)c2)cc1 ?
Result block: 100 to 1000 nM

Query block: Which measured Ki value corresponds to Nc1ncc(-c2ccc(CN3CCOCC3)cc2)nc1-c1nnnn1-c1cccc(F)c1F ?
Result block: ≤ 100 nM

Query block: Data request, read-out Ki, for Fc1cccc(-n2cnnc2-c2c[nH]c3ncc(-c4ccc(N5CCCC5)nc4)cc23)c1F
Result block: < 200 nM

Query block: Field request: Ki | item: Nc1ncc(-c2cc(F)cc(F)c2)cc1-c1nnnn1-c1cccc(F)c1F
Result block: 100 to 1000 nM

Query block: Which Ki value is on record for CCN1CCC[C@@H](n2cc(-c3cnc(N)c(-c4nnnn4-c4cccc(Cl)c4Cl)c3)cn2)C1 ?
Result block: ≤ 100 nM

Query block: // lookup Ki for Nc1ncc(-c2cc(O)c(F)c(F)c2)cc1-c1nnnn1-c1cccc(F)c1F
Result block: 100 to 1000 nM

Query block: Need Ki of Nc1nn2cc(-c3ccc(N4CCOCC4)nc3)cnc2c1-c1ccccn1 , thanks.
Result block: < 500 nM
